B1: ZBED1 (parent)
chain: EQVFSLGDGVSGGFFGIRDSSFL

Variants of: B1
Test: protein stability index of a GFP-peptide fusion (GPS, HEK-293T) (PSI 1-6); higher = more stable;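 also: lentivirally expressed fusions sorted by FACS into six bins by GFP to DsRed ratio, PSI derived from sequencing read proportions per bin multiplied by bin number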
Conditions: c terminus: native
Threshold rule: protein stability index greater than or equal to 3 is true; below that, false.

INSERT INTO results (residues, category_label) VALUES
  ('EQVFSLGDGVSGGFFGIRMSSFL [D19M]', 'false'),
  ('EQVFSLGDQVSGGFFGIRDSSFL [G9Q]', 'true'),
  ('EQVFSLGDGVSGGFFGIRDSFFL [S21F]', 'false'),
  ('EIVFSLGDGVSGGFFGIRDSSFL [Q2I]', 'false'),
  ('EQVFSLGDGVSGDFFGIRDSSFL [G13D]', 'true'),
  ('TQVFSLGDGVSGGFFGIRDSSFL [E1T]', 'false'),
  ('EQVFSLGDGVSGGFFGGRDSSFL [I17G]', 'true'),
  ('EQQFSLGDGVSGGFFGIRDSSFL [V3Q]', 'true'),
  ('EQVFSLGDGVSGGFFWIRDSSFL [G16W]', 'false'),
  ('EQRFSLGDGVSGGFFGIRDSSFL [V3R]', 'true'),
  ('EKVFSLGDGVSGGFFGIRDSSFL [Q2K]', 'false'),
  ('EQVFSRGDGVSGGFFGIRDSSFL [L6R]', 'true'),
  ('EQVFSLGDGVSGGFEGIRDSSFL [F15E]', 'true'),
  ('EQVFNLGDGVSGGFFGIRDSSFL [S5N]', 'true'),
  ('EQVFSLGDGVSGGFFGIRDTSFL [S20T]', 'true'),
  ('EQVFILGDGVSGGFFGIRDSSFL [S5I]', 'false'),
  ('EQVFSLGDGVSGGFFGIRDSPFL [S21P]', 'true'),
  ('EQVFSLWDGVSGGFFGIRDSSFL [G7W]', 'false'),
  ('EQVFSLGDGVSGGFFGIRDASFL [S20A]', 'true'),
  ('EQVFSLGDGVSGGFFGIRLSSFL [D19L]', 'false');

Numbers sourced from the supplement of paper PMC10567573.
